Measured protein stability index, listed per entry.
B1: INTS4 (parent)
chain: IRLVDDAFGKICHMVSDGSWVVRV

variants of: B1; assay: protein stability index of a GFP-peptide fusion (GPS, HEK-293T) (PSI 1-6); higher = more stable; details: c terminus: a fixed tail appended;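 note: lentivirally expressed fusions sorted by FACS into six bins by GFP to DsRed ratio, PSI derived from sequencing read proportions per bin multiplied by bin number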
Please reply with the value in numeric form only.

Observe how each entry below is paired with its result.
- R23E: 2.13
- F8K: 2.31
- M14H: 3.19
- S19G: 1.58
- F8S: 3.94

IN: Query (variant): `G9F` ; field requested: protein stability index
OUT: 3.37

IN: Please look up its protein stability index: `M14D`
OUT: 4.2
